test system: BEAS-2B cells; experiment: Release of CXCL9, CXCL10 and CXCL11 from BEAS-2B cells (ELISA), inhibitors added 1h before stimulus; format: cell-based, human; conditions: Homo sapiens, BEAS-2B, pre-treated 1h, IFNγ (10ng/ml) 20h; read-out: IC50, release of CXCL10
pIC50: −log10 of the molar value.
Experimental Endpoint: pIC50

item_smiles=CCc1cc(O)ccc1-c1ccc2c(-c3nc4ccccc4[nH]3)n[nH]c2c1 experimental_endpoint=pIC50 value=8.21

----------
system: human primary airway epithelial cells; test: Release of CXCL9, CXCL10 and CXCL11 from human primary airway epithelial cells (ELISA); type: cell-based; conditions: primary cells from smokers, pre-treated 1h, IFNγ (10 ng/ml) 20h; read-out: EC50, release of CXCL11
Experimental Endpoint: EC50 (nM)

compound="C[C@@H]1CCN(C(=O)N2CCCC2)C[C@@H]1N(C)c1ncnc2[nH]ccc12 [PF956980]" value=780

----------
tested on: human primary airway epithelial cells; test: Release of CXCL9, CXCL10 and CXCL11 from human primary airway epithelial cells (ELISA); format: cell-based; details: Homo sapiens, Epithelial cell, primary cells from smokers, pre-treated 1h, IFNγ (10 ng/ml) 20h; read-out: EC50, release of CXCL10
Experimental Endpoint: EC50 (µM)

item_smiles=CCc1cc(O)ccc1-c1ccc2c(-c3nc4ccccc4[nH]3)n[nH]c2c1 value=0.0123

----------
system: human primary airway epithelial cells; assay: Release of CXCL9, CXCL10 and CXCL11 from human primary airway epithelial cells (ELISA); type: cell-based; conditions: Homo sapiens, Epithelial cell, primary cells from COPD patients, pre-treated 1h, IFNγ (10 ng/ml) 20h; read-out: EC50, release of CXCL11
Experimental Endpoint: EC50 (nM)

item_smiles=CCc1cc(O)ccc1-c1ccc2c(-c3nc4ccccc4[nH]3)n[nH]c2c1 experimental_endpoint=EC50 value=6.3

----------
tested on: BEAS-2B cells; experiment: Release of CXCL9, CXCL10 and CXCL11 from BEAS-2B cells (ELISA), inhibitors added 1h before stimulus; assay type: cell-based, human; details: Homo sapiens, BEAS-2B, pre-treated 1h, IFNγ (10ng/ml) 20h; read-out: IC50, release of CXCL11
Experimental Endpoint: IC50 (nM)

item_smiles=CCc1cc(O)ccc1-c1ccc2c(-c3nc4ccccc4[nH]3)n[nH]c2c1 unit_info=nM value=11.5

----------
system: BEAS-2B cells; test: IL-6 release from IFNγ + TNFα-stimulated BEAS-2B cells; assay type: cell-based, human; conditions: Homo sapiens
pIC50: −log10 of the molar value.
Experimental Endpoint: pIC50

item_smiles=C[C@@H]1C[C@H]2[C@@H]3CCC4=CC(=O)C=C[C@]4(C)[C@@]3(F)[C@@H](O)C[C@]2(C)[C@@]1(O)C(=O)CO experimental_endpoint=pIC50 value=7.80

----------
tested on: BEAS-2B cells; assay: Release of CXCL9, CXCL10 and CXCL11 from BEAS-2B cells (ELISA), inhibitors added 1h before stimulus; format: cell-based, human; conditions: Homo sapiens, BEAS-2B, pre-treated 1h, IFNγ (10ng/ml) 20h; read-out: IC50, release of CXCL9
Experimental Endpoint: IC50

item_smiles=CCc1cc(O)ccc1-c1ccc2c(-c3nc4ccccc4[nH]3)n[nH]c2c1 value="3.6 nM"
